# Tested on: NCI-H292 lung cancer cells
# method.description: FDA drug screening, complete media vs cholesterol-free media with simvastatin (TABLE 2)
# Format: cell-based, human
# experimental.context: NCI-H292 cells, drug in complete media
Rule: measured Complete Media below 1 gets label 1; anything equal to or greater than 1 gets label 0.

Worked examples follow.
• COc1cc2c(cc1OC)[C@@H]1Cc3ccc(OC)c(OC)c3CN1CC2 [Tetrahydropalmatine] = label 1
• CCCOC(=O)c1cc(O)c(O)c(O)c1 [Propyl gallate] = label 0
• C[C@@H](c1ncncc1F)[C@](O)(Cn1cncn1)c1ccc(F)cc1F [Voriconazole] = label 1
• O=C1C(CC[S+]([O-])c2ccccc2)C(=O)N(c2ccccc2)N1c1ccccc1 (centres unmarked) [Sulfinpyrazone] = label 1
• CC(C)Oc1ccc(-c2nc(-c3cccc4c3CC[C@@H]4NCCO)no2)cc1C#N [Ozanimod] = label 1

--- query ---
Query: hey, is Complete Media for NC[C@H]1CC[C@H](C(=O)O)CC1 [Tranexamic acid] lower than 1 or not?
Response: label 0

Measured values drawn from patent US20250144067A1 for this set.
